Assay: The drug is tested on Z-021 corresponding to metagenome with ENA study accession number: PRJEB37062 and ENA sample accession number: ERS12561820 for biotransformation under anaerobic condition. The drug concentrations were measured over 9 timepoints collected between 0 and 24 hours of incubation by liquid-chromatography-coupled mass spectrometry (LC–MS); note: call rule not given here
Settings: 2 µM
PROPERTY MEASURED: Bacterial Biotransformation

Worked examples, 5 compounds total:
# COMPOUND, RESULT
rows = [
    ("O=C(O)CCc1nc(-c2ccccc2)c(-c2ccccc2)o1", "Compound metabolized"),
    ("CCN(CC)CCNC(C(=O)OCCC(C)C)c1ccccc1.Cl.Cl (stereo unspecified)", "Compound metabolized"),
    ("CC(C)(C)NC[C@H](O)COc1ccccc1C1CCCC1.CC(C)(C)NC[C@H](O)COc1ccccc1C1CCCC1.O=S(=O)(O)O [PENBUTOLOL SULFATE]", "Compound metabolized"),
    ("Cc1ccc(-c2nc3ccc(C)cn3c2CC(=O)N(C)C)cc1", "Compound NOT metabolized"),
    ("C#C[C@]1(O)CC[C@H]2[C@@H]3CCC4=Cc5oncc5C[C@]4(C)[C@H]3CC[C@@]21C", "Compound metabolized"),
]

Which Bacterial Biotransformation reading was recorded for the compound CCC(COC(=O)c1cc(OC)c(OC)c(OC)c1)(c1ccccc1)N(C)C.O=C(O)/C=C\C(=O)O (stereo unspecified) ?
Compound metabolized

Now consider COc1ccc2c3c1O[C@H]1C[C@@H](O)C=C[C@@]31CCN(C)C2 .
Compound NOT metabolized

Ok, now OCCOCCN1CCN(C2=Nc3ccccc3Sc3ccccc32)CC1
Compound NOT metabolized

// repeat for CN(C)CCc1c[nH]c2ccc(Cn3cncn3)cc12.O=C(O)c1ccccc1 [RIZATRIPTAN BENZOATE] and report
Compound NOT metabolized

Another compound to look at: CCOC(=O)[C@H](CCc1ccccc1)N[C@@H](C)C(=O)N1[C@H](C(=O)O)C[C@H]2CCCC[C@@H]21
Compound NOT metabolized

Can you handle CCCCC1=NC2(CCCC2)C(=O)N1Cc1ccc(-c2ccccc2-c2nnn[nH]2)cc1 next?
Compound NOT metabolized

Now consider C[C@@H](CO)NC(=O)[C@@H]1C=C2c3cccc4[nH]cc(c34)C[C@H]2N(C)C1.O=C(O)/C=C\C(=O)O [ERGONOVINE MALEATE] and answer again.
Compound NOT metabolized

Same for O=P(O)(O)O.c1ccc(CN(CC2=NCCN2)c2ccccc2)cc1 [ANTAZOLINE PHOSPHATE]
Compound NOT metabolized

What about this compound? OC(Cn1cncn1)(Cn1cncn1)c1ccc(F)cc1F
Compound metabolized

Now give it for COCCc1ccc(OCC(O)CNC(C)C)cc1.COCCc1ccc(OCC(O)CNC(C)C)cc1.O=C(O)C(O)C(O)C(=O)O (stereo unspecified) [METOPROLOL TARTRATE] too.
Compound NOT metabolized

Now the compound Cc1cn([C@H]2C[C@H](N=[N+]=[N-])[C@@H](CO)O2)c(=O)[nH]c1=O
Compound NOT metabolized

====

Assay: The drug is tested on Z-022 corresponding to mouse gut metagenome with ENA study accession number: PRJEB37062 and ENA sample accession number: ERS12561821 for biotransformation under anaerobic condition. The drug concentrations were measured over 9 timepoints collected between 0 and 24 hours of incubation by liquid-chromatography-coupled mass spectrometry (LC–MS)
Conditions: 2 µM
PROPERTY MEASURED: Bacterial Biotransformation

Would you please look over these solved cases?
# COMPOUND, Bacterial Biotransformation
measured = [
    ("CC(C)(Oc1ccc(CCNC(=O)c2ccc(Cl)cc2)cc1)C(=O)O [BEZAFIBRATE]", "Compound metabolized"),
    ("Cc1cn([C@H]2C[C@H](N=[N+]=[N-])[C@@H](CO)O2)c(=O)[nH]c1=O", "Compound metabolized"),
    ("Cc1nc2n(c(=O)c1CCN1CCC(c3noc4cc(F)ccc34)CC1)CCCC2O (stereo not drawn)", "Compound NOT metabolized"),
    ("CN1CCN(C(=O)O[C@H]2c3nccnc3C(=O)N2c2ccc(Cl)cn2)CC1", "Compound NOT metabolized"),
    ("CC(C)(C(=O)O)c1ccc(C(O)CCCN2CCC(C(O)(c3ccccc3)c3ccccc3)CC2)cc1 (stereo not drawn) [FEXOFENADINE]", "Compound NOT metabolized"),
    ("CCCC(=O)Nc1ccc(OCC(O)CNC(C)C)c(C(C)=O)c1 (stereo not drawn)", "Compound metabolized"),
    ("COc1ccc2c3c1O[C@H]1C[C@@H](O)C=C[C@@]31CCN(C)C2", "Compound NOT metabolized"),
    ("C#C[C@]1(O)CC[C@H]2[C@@H]3CCC4=Cc5oncc5C[C@]4(C)[C@H]3CC[C@@]21C", "Compound metabolized"),
    ("Cc1ccc(S(=O)(=O)NC(=O)NN2CCCCCC2)cc1 [TOLAZAMIDE]", "Compound metabolized"),
    ("Cc1ccc(-c2nc3ccc(C)cn3c2CC(=O)N(C)C)cc1", "Compound metabolized"),
]

With those in mind, consider the next compound.
Any idea what its Bacterial Biotransformation is? The compound is CN1CCC(=C2c3ccccc3CCc3cccnc32)CC1.O=C(O)/C=C\C(=O)O.O=C(O)/C=C\C(=O)O [AZATADINE MALEATE]
Compound NOT metabolized

# credit: ChEMBL document CHEMBL5724914
